- measurementTarget: T1, human amylin-3 (a) receptor (human, UniProt P30988 25-474; O60896 24-148)
- T1 sequence (looked up) 1: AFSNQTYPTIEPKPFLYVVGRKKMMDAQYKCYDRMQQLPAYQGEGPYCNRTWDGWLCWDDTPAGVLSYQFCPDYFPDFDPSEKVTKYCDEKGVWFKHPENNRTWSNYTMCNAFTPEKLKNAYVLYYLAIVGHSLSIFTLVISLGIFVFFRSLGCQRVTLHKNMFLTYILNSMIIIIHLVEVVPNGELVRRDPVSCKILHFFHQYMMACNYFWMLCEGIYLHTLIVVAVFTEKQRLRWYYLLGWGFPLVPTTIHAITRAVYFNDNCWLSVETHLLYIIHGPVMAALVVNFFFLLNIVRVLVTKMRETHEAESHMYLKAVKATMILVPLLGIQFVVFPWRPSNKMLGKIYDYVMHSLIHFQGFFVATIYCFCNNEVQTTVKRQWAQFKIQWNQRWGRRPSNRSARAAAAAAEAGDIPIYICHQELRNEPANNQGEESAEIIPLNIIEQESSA
- T1 sequence (looked up) 2: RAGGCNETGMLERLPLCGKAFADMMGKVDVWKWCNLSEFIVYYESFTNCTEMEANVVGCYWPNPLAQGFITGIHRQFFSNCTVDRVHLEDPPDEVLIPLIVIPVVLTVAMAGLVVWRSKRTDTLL
- assayNotes: cell-based or functional assay
Starred links: 1 amine or outer side, 2 acyl side, 3 side chain; linkers in the order of their positions; H or OH if unused. Non-standard residues stand in square brackets, D forms with d. Groups on a side chain read outwards from the residue. *: point of attachment. Butyryl(4-SO2NHCO(CH2)16Tz) = O=C(CCCCCCCCCCCCCCCCc1nnn[nH]1)NS(=O)(=O)CCCC(=O)*; C20 diacid = O=C(O)CCCCCCCCCCCCCCCCCCC(=O)*; C18 diacid = O=C(O)CCCCCCCCCCCCCCCCC(=O)*; C16 diacid = O=C(O)CCCCCCCCCCCCCCC(=O)*; γGlu = O=C(O)[C@H](CCC(=O)[*:2])N[*:1]; Desaminohistidyl = O=C(CCc1c[nH]cn1)*; εLys = N[C@@H](CCCCN[*:1])C(=O)[*:2]; Trx = NC[C@H]1CC[C@H](C(=O)O)CC1; AEEA = NCCOCCOCC(=O)O; Aib = CC(C)(N)C(=O)O
attributeMeasured: Human AmyR3 potency [EC50 (pM)]
Expressed in pM, but write only the number.

Here is how some binders turned out for Human AmyR3 potency [EC50 (pM)].
Compound 0472 (peptide) peptide: HAEGTFTSDVSSYLEEK([AEEA-AEEA-γGlu-C18 diacid])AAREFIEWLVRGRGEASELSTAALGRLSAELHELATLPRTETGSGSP-NH2 ... 24
Compound 0433 (peptide) peptide: HWEGTFTSDK([εLys-AEEA-AEEA-γGlu-Trx-C20 diacid])SSYLEEQAAREFIEWLVRGRGEASELSTAALGRLSAELHELATLPRTETGSGSP-NH2 ... 12.9
Compound 0511 (peptide) peptide: H[Aib]EGTFTSDVSRYLEEQAAREFIEWLVRGRK([AEEA-AEEA-γGlu-Trx-C20 diacid])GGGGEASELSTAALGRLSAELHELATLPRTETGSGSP-NH2 ... 8.4
Compound 0095 (peptide) peptide: H[Aib]EGTFTSDVSSYLEGQAAK([AEEA-AEEA-γGlu-Trx-C20 diacid])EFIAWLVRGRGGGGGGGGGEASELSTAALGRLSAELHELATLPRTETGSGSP-NH2 ... 6.6
Compound 0109 (peptide) peptide: H[Aib]EGTFTSDVSSYLEEQAARK([AEEA-AEEA-γGlu-C18 diacid])FIAWLVRGK([AEEA-AEEA-γGlu-C18 diacid])GGGGGGGGGEASELSTAALGRLSAELHELATLPRTETGSGSP-NH2 ... 19.1

For Compound 0270 (peptide) peptide: HWEGTFTSDVSSYLEEK([AEEA-AEEA-γGlu-Trx-C20 diacid])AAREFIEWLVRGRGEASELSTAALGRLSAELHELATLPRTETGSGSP-NH2 , what is its reported Human AmyR3 potency [EC50 (pM)]?
8.6

For Compound 0411 (peptide) peptide: H[Aib]EGTFTSDVSSYLEEK([AEEA-AEEA-γGlu-C16 diacid])AAREFIAWLVRGRGGGGGEASELSTAALGRLSAELHELATLPRTETGK([AEEA-AEEA-γGlu-C16 diacid])GSP-NH2 , what is its reported Human AmyR3 potency [EC50 (pM)]?
45.9

For Compound 0056 (peptide) peptide: H[Aib]EGTFTSDVSSYLEGQAAK([AEEA-AEEA-γGlu-C18 diacid])EFIAWLVRGRGK([AEEA-AEEA-γGlu-C18 diacid])QEPGQEPEASELSTAALGRLSAELHELATLPRTETGSGSP-NH2 , what is its reported Human AmyR3 potency [EC50 (pM)]?
120

For Compound 0629 (not fully specified (residue 21)) peptide: H[Aib]EGTFTSDVSK([AEEA-AEEA-γGlu-C16 diacid])YLEEQAARKFIEWLVRGAAEASELSTAALGRLSAELHELATLPRTETGSGSP-NH2 , what is its reported Human AmyR3 potency [EC50 (pM)]?
97.5

For Compound 0124 (peptide) peptide: [Desaminohistidyl][Aib]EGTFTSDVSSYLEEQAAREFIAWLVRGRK(Butyryl(4-SO2NHCO(CH2)16Tz))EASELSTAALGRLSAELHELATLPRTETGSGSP-NH2 , what is its reported Human AmyR3 potency [EC50 (pM)]?
24.4

For Compound 0098 (Lys21 and Lys30 each (10-(4-carboxyphenoxy)decanoyl-gGlu-Ado-Ado); C-terminal amide) peptide: HGEGTFTSDVSSYLEEQAARKFIEWLVRGKGEGGGGGGGGGEASELSTAALGRLSAELHELATLPRTETGSGSP , what is its reported Human AmyR3 potency [EC50 (pM)]?
15.6
